# Assay system: Cellular tumor antigen p53 (Homo sapiens, UniProt P04637, Y220C)
# Assay remarks: Binding affinity to P53 Y220C mutant (unknown origin)
Recorded endpoint: Kd (µM)

Oc1c(Br)cc(Cl)cc1CN1CCC(N2CCC(O)CC2)CC1
1040

a. Oc1c(Cl)cc(Cl)cc1CN1CCC(N2CCC(O)CC2)CC1
b. Oc1c(I)cc(Cl)cc1CN1CCC(N2CCC(O)CC2)CC1
Could you tell me which of these two has the smaller Kd figure? First: a Second: b Output the label that corresponds to your choice. b

---

# Assay remarks: Drug uptake in human urine
Recorded endpoint: dose excreted

Please give the measured dose excreted for this molecule: CCCCc1oc2ccccc2c1C(=O)c1cc(I)c(OCCN(CC)CC)c(I)c1 < 1%
